A short record of IC50 observed with ADPRT (Bos taurus, UniProt P18493) follows.
Sequence (P18493 whole entry): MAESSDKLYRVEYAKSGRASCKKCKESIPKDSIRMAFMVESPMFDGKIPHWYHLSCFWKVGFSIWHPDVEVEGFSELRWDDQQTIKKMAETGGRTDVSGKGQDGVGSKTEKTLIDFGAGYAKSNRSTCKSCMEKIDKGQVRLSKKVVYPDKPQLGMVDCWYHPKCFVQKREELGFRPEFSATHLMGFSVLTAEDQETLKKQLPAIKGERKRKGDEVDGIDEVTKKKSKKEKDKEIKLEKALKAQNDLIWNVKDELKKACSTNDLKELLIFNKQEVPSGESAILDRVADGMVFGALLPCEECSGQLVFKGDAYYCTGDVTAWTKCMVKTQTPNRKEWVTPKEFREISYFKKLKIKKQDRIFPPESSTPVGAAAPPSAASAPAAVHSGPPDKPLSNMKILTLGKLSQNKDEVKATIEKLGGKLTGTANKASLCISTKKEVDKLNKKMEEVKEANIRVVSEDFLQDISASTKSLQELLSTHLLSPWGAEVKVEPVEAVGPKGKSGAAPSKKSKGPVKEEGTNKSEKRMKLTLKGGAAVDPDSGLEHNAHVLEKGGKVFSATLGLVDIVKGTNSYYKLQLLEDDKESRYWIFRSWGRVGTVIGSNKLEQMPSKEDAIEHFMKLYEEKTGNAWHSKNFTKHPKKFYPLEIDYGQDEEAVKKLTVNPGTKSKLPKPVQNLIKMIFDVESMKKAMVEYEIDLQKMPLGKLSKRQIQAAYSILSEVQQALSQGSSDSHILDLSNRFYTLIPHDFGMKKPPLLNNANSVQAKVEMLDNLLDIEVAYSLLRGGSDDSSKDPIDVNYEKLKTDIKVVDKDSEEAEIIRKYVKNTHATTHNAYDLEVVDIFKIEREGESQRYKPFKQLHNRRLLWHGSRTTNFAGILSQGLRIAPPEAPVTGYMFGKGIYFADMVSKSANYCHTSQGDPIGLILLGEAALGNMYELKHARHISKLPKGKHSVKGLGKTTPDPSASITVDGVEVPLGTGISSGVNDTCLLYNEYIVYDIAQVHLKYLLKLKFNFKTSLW
# output: bare number, implied unit µM

[[record]]
compound = "Nc1ccc2oc(=O)ccc2c1 [6-ABP, 6-amino-1,2-benzopyrone, reference compound]"
unit_abbreviation = "µM"
measured = 125


As a next step, examine the compound that follows.
Considering Nc1ccc2oc(=O)ccc2c1I , its IC50 with ADPRT (Bos taurus, UniProt P18493) was recorded as 19
